// reported IC50 per item
# SYSTEM NAME: GST-tagged truncated human mutant G2019S LRRK2 (Homo sapiens (Human), UniProt Q5S007, G2019S)
# Sequence (Q5S007 970-2527 G2019S): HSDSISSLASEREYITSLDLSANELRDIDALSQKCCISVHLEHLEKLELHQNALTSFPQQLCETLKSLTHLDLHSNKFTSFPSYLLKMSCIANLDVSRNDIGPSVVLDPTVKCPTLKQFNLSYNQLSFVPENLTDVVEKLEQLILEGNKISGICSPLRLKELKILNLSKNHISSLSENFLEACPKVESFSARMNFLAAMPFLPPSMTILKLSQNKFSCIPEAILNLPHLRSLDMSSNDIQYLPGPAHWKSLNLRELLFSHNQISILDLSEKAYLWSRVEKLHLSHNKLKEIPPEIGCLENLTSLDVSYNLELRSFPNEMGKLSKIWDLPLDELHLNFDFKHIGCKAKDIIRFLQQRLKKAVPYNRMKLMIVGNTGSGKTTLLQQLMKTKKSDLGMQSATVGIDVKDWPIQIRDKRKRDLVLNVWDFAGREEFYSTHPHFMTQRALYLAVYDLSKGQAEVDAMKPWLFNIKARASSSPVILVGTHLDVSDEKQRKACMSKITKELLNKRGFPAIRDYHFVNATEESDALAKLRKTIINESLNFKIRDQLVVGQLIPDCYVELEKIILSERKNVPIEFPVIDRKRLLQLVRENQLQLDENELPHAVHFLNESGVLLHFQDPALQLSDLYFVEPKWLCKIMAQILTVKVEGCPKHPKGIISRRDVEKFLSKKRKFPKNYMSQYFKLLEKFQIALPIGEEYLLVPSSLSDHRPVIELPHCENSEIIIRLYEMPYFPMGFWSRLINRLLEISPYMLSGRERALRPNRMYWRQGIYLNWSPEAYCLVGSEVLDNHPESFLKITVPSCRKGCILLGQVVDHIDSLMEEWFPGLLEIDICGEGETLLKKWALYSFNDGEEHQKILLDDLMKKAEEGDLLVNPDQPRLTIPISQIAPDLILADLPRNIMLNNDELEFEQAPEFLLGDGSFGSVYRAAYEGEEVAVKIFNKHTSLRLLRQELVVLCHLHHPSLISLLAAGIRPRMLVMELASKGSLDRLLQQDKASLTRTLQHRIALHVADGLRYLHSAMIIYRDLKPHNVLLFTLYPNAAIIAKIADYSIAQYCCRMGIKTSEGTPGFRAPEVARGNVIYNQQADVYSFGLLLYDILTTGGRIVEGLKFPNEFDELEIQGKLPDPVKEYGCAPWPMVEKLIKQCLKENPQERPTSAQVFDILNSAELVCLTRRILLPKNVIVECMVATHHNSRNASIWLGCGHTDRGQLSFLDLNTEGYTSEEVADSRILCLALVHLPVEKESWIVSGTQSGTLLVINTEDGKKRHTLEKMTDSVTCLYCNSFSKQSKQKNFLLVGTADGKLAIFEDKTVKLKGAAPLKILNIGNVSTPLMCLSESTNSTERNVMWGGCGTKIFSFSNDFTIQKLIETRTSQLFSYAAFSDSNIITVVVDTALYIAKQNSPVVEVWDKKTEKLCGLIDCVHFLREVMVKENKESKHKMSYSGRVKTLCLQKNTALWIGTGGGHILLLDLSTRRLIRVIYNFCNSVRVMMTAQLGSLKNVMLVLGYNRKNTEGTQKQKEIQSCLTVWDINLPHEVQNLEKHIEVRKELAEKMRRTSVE
# ASSAY DETAILS: LRRK2 Km ATP LanthaScreen Assay
# SETUP CONDITIONS: 134 μM ATP (Km ATP); fluorescein-labeled LRRKtide substrate; mean IC50 values
The response must be a number in nM with no trailing unit.

Sample records with IC50:
1) N#CC1(c2ccc3cnn(-c4cc(N5CC[C@@H](O)[C@@H](F)C5)ncn4)c3c2)CC2(CC2)C1 [Example 1] : 4.4
2) CC(C)(O)[C@@H]1CN(c2cc(-n3ncc4ccc(C5(C#N)CC6(CC6)C5)cc43)ncn2)CCO1 [Example 43] : 0.9
3) CC(C)(O)C1CN(c2cc(-n3ncc4ccc(C5(C#N)CC6(CC6)C5)cc43)ncn2)CC1F (single isomer, unassigned) [Example 22] : 3.7
4) CC1C2(CC2)CC1(C#N)c1ccc2cnn(-c3cc(N4CCN5CCOC[C@@H]5C4)ncn3)c2c1 (single isomer, unassigned) [Example 54] : 1.7
5) CC(C)(O)[C@@H]1CCN(c2cc(-n3ncc4cnc(C5(C#N)CC6(CC6)C5)cc43)ncn2)C1 [Example 19] : 10.7

Memo: CN1CCN(c2cc(-n3ncc4ccc(C5(C#N)CC6(CC6)C5)cc43)ncn2)CC1CO (single isomer, unassigned) [Example 15] , reported IC50: 3.8

Entry C[C@H]1CN(c2cc(-n3ncc4ccc(C5(C#N)CC6(CC6)C5)cc43)ncn2)CCN1C1COC1 [Example 13] — recorded IC50 = 1

The reported value for C[C@@H]1CN(c2cc(-n3ncc4ccc(C5(C#N)CC6(CC6)C5)cc43)ncn2)C[C@H](C)[C@]1(C)O [Example 17] in terms of IC50 is 8.9

The recorded IC50 for entry CNc1nc(N2CC3(C(C)(C)O)CC2C3)cc(-n2ncc3ccc(C4(C#N)CC5(CC5)C4)cc32)n1 [Example 29] equals 16.7

* * *

# SYSTEM NAME: GST-tagged truncated human mutant G2019S LRRK2 (Homo sapiens (Human), UniProt Q5S007, G2019S)
# ASSAY DETAILS: LRRK2 Km ATP LanthaScreen Assay
# Type: biochemical
# SETUP CONDITIONS: 134 μM ATP (Km ATP); fluorescein-labeled LRRKtide substrate; mean IC50 values
PROPERTY NAME: IC50 (nM)
A number alone suffices; assume nM.

Some compounds with recorded IC50:
1. Cc1nc(N2CCN3CCOC[C@@H]3C2)cc(-n2ncc3cnc(C4(C#N)CC5(CC5)C4)cc32)n1 [Example 48] : 20.2
2. COCc1nc(N2CCN(C3COC3)[C@@H](C)C2)cc(-n2ncc3ccc(C4(C#N)CC5(CC5)C4)cc32)n1 [Example 21] : 10.9
3. N#CC1(c2ccc3cnn(-c4ccnc(N5CC6(CO)CC5C6)c4)c3c2)CC2(CC2)C1 [Example 32] : 10

Next:
So, N#CC1(c2ccc3cnn(-c4cc(N5CC(O)(C6CC6)C5)ncn4)c3c2)CC2(CC2)C1 [Example 27] ? Its IC50 was 7.4

* * *

# SYSTEM NAME: GST-tagged truncated human mutant G2019S LRRK2 (Homo sapiens (Human), UniProt Q5S007, G2019S)
# ASSAY DETAILS: LRRK2 Km ATP LanthaScreen Assay
# SETUP CONDITIONS: 134 μM ATP (Km ATP); fluorescein-labeled LRRKtide substrate; mean IC50 values
List of pIC50 values.
Just so you know, pIC50 here is -log10 of the concentration in molar units; reply with that number alone.

1. Cc1nc(N2CC[C@@H](C(C)(C)O)C2)cc(-n2ncc3ccc(C4(C#N)CC5(CC5)C4)cc32)n1 : 8.42
2. CC(C)(O)C1CN(c2cc(-n3ncc4ccc(C5(C#N)CC6(CC6)C5)cc43)ncn2)C1 : 8.59
3. C[C@H]1CN(c2cc(-n3ncc4ccc(C5(C#N)CC6(CC6)C5)cc43)ncn2)CCN1C1CCOC1 (single isomer, unassigned) [Example 34] : 9.05

We next turn to a different compound, shown below.
pIC50 in this record for Cc1nc(N2CC3(C(C)(C)O)CC2C3)cc(-n2ncc3ccc(C4(C#N)CC5(CC5)C4)cc32)n1 : 7.91
